Test system: 37RC cells
testDescription: Toxicity to uninfected 37RC cells, determined visually by microscopy
Assay type: cell-based, Monkey
quantityName: TD100 (concentration 100% toxic to uninfected cells) (µM)

CCCCCCC/C=C1/C(=O)C=CC1O[Si](C)(C)C(C)(C)C (stereo not drawn) [CTC-34] = 50
CC/C=C1/C(=O)C=CC1O[Si](C)(C)C(C)(C)C (stereo not drawn) [CTC-31] = 50
CC(C)(C)[Si](C)(C)OC1C=CC(=O)/C1=C/c1ccccn1 (stereo not drawn) [CTC-32] = 10
CC(C)(C)[Si](C)(C)OC1C=CC(=O)/C1=C/c1ccccc1 (stereo not drawn) [CTC-33] = 50
CCC/C=C1/C(=O)C=CC1O[Si](C)(C)C(C)(C)C (stereo not drawn) [CTC-45] = 50
CC(C)/C=C1\C(=O)C=CC1O[Si](C)(C)C(C)(C)C (stereo not drawn) [CTC-35] = 50

---

System: parainfluenza Sendai virus (SV)
testDescription: microbe, parasite or virus in culture
Assay type: cell-based
experimentalSetup: Respirovirus muris, 24 h, read-out: ID50
quantityName: IC50

CC(C)(C)[Si](C)(C)OC1C=CC(=O)/C1=C/c1ccccn1 (stereo not shown) = 2000 nM
CC/C=C1/C(=O)C=CC1O[Si](C)(C)C(C)(C)C (stereo not shown) = 1000 nM
CCC/C=C1/C(=O)C=CC1O[Si](C)(C)C(C)(C)C (stereo not shown) = 3000 nM
CCCCCCC/C=C1/C(=O)C=CC1O[Si](C)(C)C(C)(C)C (stereo not shown) = 3000 nM
